Here we gather pIC50 data for F1F0-ATPase (Bos taurus) reported by several publications.
pIC50: −log10 of the molar value.

Below, 2 molecules whose answers are already recorded.
molecule=O=C(/N=C(/NCc1ccccc1C(F)(F)F)Nc1cccc(O)n1)c1ccc(Cl)cc1 target="F1F0-ATPase (Bos taurus)" result="> 5.00"
molecule=COc1cccc(C(=O)N=C(Nc2cc(-c3ccc(F)cc3)n[nH]2)NC2CCCC2)c1 target="F1F0-ATPase (Bos taurus)" result="> 5.00"

Prompt: Please look up its pIC50: O=C(/N=C(/Nc1cccc(C2CC2)c1)Nc1cccc(O)n1)c1ccc(C(F)(F)F)cc1
Completion: > 5.00

Prompt: Same lookup for O=C(/N=C(/NCc1ccc(Cl)c(F)c1)Nc1cc(C(F)(F)F)[nH]n1)c1ccc(C(F)(F)F)cc1 , please.
Completion: > 5.00

Prompt: Same lookup for CC(C)CNC(=NC(=O)c1cccc(Cl)c1)Nc1n[nH]c2cc(Cl)c(F)cc12 , please.
Completion: > 5.30

Prompt: Same lookup for COCC(C)NC(=NC(=O)c1ccc(OC)cc1F)Nc1cc(-c2ccc(F)cc2)n[nH]1 (stereo not drawn) , please.
Completion: < 5.00

Prompt: Same lookup for O=C(/N=C(/NCc1ccc(F)c(Cl)c1)Nc1cc(C(F)(F)F)[nH]n1)c1ccc(F)c(F)c1 , please.
Completion: > 5.00

Prompt: Same lookup for CC(C)N/C(=N/C(=O)c1cc(C(C)C)no1)Nc1cc(-c2ccc(F)cc2)n[nH]1 , please.
Completion: > 5.30

Prompt: Same lookup for O=C(/N=C(/Nc1cc(C(F)(F)F)n[nH]1)NC1CCCC1)c1ccc(C(F)(F)F)cc1 , please.
Completion: > 5.00

Prompt: Same lookup for COC[C@H](C)N/C(=N/C(=O)c1ccc(C(F)(F)F)cc1)Nc1cc(-c2ccc(OC)c(F)c2)n[nH]1 , please.
Completion: > 5.00
